Data origin, for the record: patent US11135207B2

Biological target: Des1 (Homo sapiens (Human), UniProt O15121)
Sequence (O15121 whole entry): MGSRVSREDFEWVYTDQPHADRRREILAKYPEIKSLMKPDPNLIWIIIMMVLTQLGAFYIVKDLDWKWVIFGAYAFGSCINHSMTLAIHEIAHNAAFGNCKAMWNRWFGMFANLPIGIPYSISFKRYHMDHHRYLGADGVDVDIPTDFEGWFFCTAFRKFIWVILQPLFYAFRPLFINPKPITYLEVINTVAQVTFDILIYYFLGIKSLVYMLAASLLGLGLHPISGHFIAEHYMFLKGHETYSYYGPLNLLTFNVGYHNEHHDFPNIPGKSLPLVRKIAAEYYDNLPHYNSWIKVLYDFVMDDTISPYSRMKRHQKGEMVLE
Test: Jurkat T cell measurement of conversion of dihydroceramide to ceramide
Assay type: cell-based
Details: Jurkat clone E6-1 cells, NBD-C6-dihydroceramide substrate; read-out: Des1 IC50
assay readout: IC50 (nM)

| molecule | assay readout | reported value |
| --- | --- | --- |
| O=C(CN1CCN(c2ccc(Cl)cc2)CC1)Nc1ccc(O)cn1 | IC50 | 66 |

a = CC(C)O[C@H]1CC[C@@H](C(=O)Nc2ccc(O)cn2)CC1
b = O=C(Nc1ccc(O)cn1)c1ccc(-c2ccc(Cl)cc2)cc1
Request: Given the listed items, does a or b have the lesser reported IC50? State your choice using its label.
Result: b

----------
Target: UniProt:O15121
Test: Jurkat T cell measurement of conversion of dihydroceramide to ceramide
Format: cell-based
Conditions: 10 μM compound, Jurkat clone E6-1 cells, NBD-C6-dihydroceramide substrate; read-out: Des1 % Inhib (10 μM)
assay readout: inhibition at 10 µM (%)

| compound | units | inhibition at 10 µM |
| --- | --- | --- |
| O=C(Nc1ccc(O)cc1)c1ccc(-c2ccc(O)cc2)cc1 [Example 16] | % | 54 |

P = CC(C)=CC(=O)Nc1ccc(O)cc1 [Example 11]
Q = O=C(Nc1ccc(O)cc1)[C@@H]1C[C@H]1c1ccccc1 (relative stereo) [Example 6]
Request: Given the listed items, does P or Q have the lesser reported inhibition at 10 µM? State your choice using its label.
Result: P

----------
Target: UniProt:O15121
Experiment: Jurkat T cell measurement of conversion of dihydroceramide to ceramide
Format: cell-based
Details: 0.5 μM compound, Jurkat clone E6-1 cells; read-out: Des1 % Inhib (0.5 μM)
assay readout: inhibition at 0.5 µM (%)

| molecule | reported value |
| --- | --- |
| O=C(CC1CCN(c2ccc(F)cc2)CC1)Nc1ccc(O)cn1 [Example 49] | 96.8 |
| O=C(CN1CCN(c2ccc(F)cc2)CC1)Nc1ccc(O)cn1 [Example 50] | 92.3 |
| O=C(Nc1ccc(O)cn1)c1ccc(-c2c(Cl)cccc2Cl)cc1 [Example 39] | 65.9 |
| CC(C)O[C@H]1CC[C@@H](C(=O)Nc2ccc(O)cn2)CC1 [Example 41] | 81.3 |
| CCc1ccc(C(=O)Nc2ccc(O)cn2)cc1 [Example 42] | 85.5 |
| CC(c1ccc(C(=O)Nc2ccc(O)cn2)cc1)C(F)(F)F (centres unmarked) [Example 45] | 94 |
| O=C(Nc1ccc(O)cn1)c1ccc(-c2ccccn2)cc1 [Example 33] | 71.1 |
| O=C(Nc1ccc(O)cn1)c1ccc(-c2cccnc2)cc1 [Example 34] | 85.6 |
